EXPERIMENTAL SYSTEM: Caspase-8 (Homo sapiens)
Sequence (Q14790 217-374 limits assumed): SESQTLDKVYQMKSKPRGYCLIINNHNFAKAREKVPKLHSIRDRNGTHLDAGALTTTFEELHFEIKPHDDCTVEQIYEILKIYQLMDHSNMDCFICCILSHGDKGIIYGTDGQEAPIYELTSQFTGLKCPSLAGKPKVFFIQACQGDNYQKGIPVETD
Sequence (Q14790 385-479 limits assumed): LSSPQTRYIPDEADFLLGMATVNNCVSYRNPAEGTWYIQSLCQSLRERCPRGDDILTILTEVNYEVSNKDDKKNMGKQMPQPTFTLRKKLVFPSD
pIC50: −log10 of the molar value.

SMILES STRUCTURE: CC[C@H](C)[C@H](NC(=O)[C@H](CCC(N)=O)NC(=O)[C@H](Cc1c[nH]c2ccccc12)NC(=O)OCc1ccccc1)C(=O)N[C@H](/C=C/S(C)(=O)=O)CC(=O)O
pIC50: 5.23

SMILES STRUCTURE: CC(C)(C)[C@H](NC(=O)[C@H](CC(=O)O)NC(=O)OCc1ccccc1)C(=O)N1CC[C@H]1C(=O)N[C@H](/C=C/S(C)(=O)=O)CC(=O)O
pIC50: 5.39

====

EXPERIMENTAL SYSTEM: Caspase-4 (Homo sapiens, UniProt P49662)
Sequence (P49662 whole entry): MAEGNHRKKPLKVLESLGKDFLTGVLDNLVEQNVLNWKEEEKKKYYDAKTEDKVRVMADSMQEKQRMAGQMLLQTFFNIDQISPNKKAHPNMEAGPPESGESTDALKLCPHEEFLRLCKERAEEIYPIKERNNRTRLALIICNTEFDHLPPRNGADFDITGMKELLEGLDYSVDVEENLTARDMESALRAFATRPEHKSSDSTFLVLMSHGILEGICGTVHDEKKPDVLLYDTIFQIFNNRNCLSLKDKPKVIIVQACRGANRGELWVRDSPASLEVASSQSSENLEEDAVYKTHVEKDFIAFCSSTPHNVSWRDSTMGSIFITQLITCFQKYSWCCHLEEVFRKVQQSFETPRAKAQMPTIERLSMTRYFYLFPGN
// values below are reported IC50
RECORDED ENDPOINT: IC50

SMILES STRUCTURE: CC(C)(C)[C@H](NC(=O)[C@H](CC(=O)O)NC(=O)OCc1ccccc1)C(=O)N1CC[C@H]1C(=O)N[C@H](/C=C/S(C)(=O)=O)CC(=O)O
RESULT: 5600 nM
--
SMILES STRUCTURE: CC[C@H](C)[C@H](NC(=O)[C@H](CCC(N)=O)NC(=O)[C@@H](NC(=O)OCc1ccccc1)C(C)C)C(=O)N[C@H](/C=C/S(C)(=O)=O)CC(=O)O
RESULT: 370 nM

====

pIC50: −log10 of the molar value.
Measured pIC50 on Caspase-1 (Homo sapiens, UniProt P29466) follows.
Sequence (P29466 120-297 limits assumed): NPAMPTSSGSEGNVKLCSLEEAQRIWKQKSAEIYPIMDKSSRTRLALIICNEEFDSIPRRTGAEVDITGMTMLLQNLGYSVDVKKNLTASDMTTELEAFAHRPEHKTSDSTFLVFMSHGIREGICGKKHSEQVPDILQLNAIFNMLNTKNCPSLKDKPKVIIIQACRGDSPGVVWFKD
Sequence (P29466 317-404 limits assumed): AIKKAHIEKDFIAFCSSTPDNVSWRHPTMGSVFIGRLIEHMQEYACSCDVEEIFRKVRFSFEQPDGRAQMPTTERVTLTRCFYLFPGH
RECORDED ENDPOINT: pIC50

SMILES STRUCTURE: CC[C@H](C)[C@H](NC(=O)[C@H](CCC(N)=O)NC(=O)[C@@H](NC(=O)OCc1ccccc1)C(C)C)C(=O)N[C@H](/C=C/S(C)(=O)=O)CC(=O)O
EXPERIMENTAL SYSTEM: Caspase-1 (Homo sapiens, UniProt P29466)
NUMERIC VALUE: 5.57
//
SMILES STRUCTURE: CC(C)(C)[C@H](NC(=O)[C@H](CC(=O)O)NC(=O)OCc1ccccc1)C(=O)N1CC[C@H]1C(=O)N[C@H](/C=C/S(C)(=O)=O)CC(=O)O
EXPERIMENTAL SYSTEM: Caspase-1 (Homo sapiens, UniProt P29466)
NUMERIC VALUE: 4.88
//
SMILES STRUCTURE: CC[C@H](C)[C@H](NC(=O)[C@H](CCC(N)=O)NC(=O)[C@H](Cc1c[nH]c2ccccc12)NC(=O)OCc1ccccc1)C(=O)N[C@H](/C=C/S(C)(=O)=O)CC(=O)O
EXPERIMENTAL SYSTEM: Caspase-1 (Homo sapiens, UniProt P29466)
NUMERIC VALUE: 7.59
